// reported RUNX1 binding intensity for each item listed
target-desc: RUNX1 (UniProt Q01196)
Sequence (Q01196 whole entry): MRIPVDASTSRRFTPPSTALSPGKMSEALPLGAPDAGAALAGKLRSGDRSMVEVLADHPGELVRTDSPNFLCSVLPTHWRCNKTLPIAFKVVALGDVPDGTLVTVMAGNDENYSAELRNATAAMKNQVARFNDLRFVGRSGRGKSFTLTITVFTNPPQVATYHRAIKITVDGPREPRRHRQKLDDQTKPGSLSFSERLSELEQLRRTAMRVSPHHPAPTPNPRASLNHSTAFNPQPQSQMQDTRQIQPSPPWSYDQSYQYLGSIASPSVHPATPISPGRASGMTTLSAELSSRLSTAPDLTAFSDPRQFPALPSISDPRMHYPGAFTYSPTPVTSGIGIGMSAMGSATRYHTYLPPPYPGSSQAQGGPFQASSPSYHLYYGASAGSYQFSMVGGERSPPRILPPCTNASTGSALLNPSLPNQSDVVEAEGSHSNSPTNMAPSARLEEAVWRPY
assay-name: RUNX1 binding intensity (PBM fluorescence), RUNX1 alone (arbitrary fluorescence units); higher = stronger binding
particulars: RUNX1 concentration 2 nM; ETS1 concentration 0 nM
Respond using a number only.

// worked examples, RUNX1 binding intensity included
item-sequence	RUNX1 binding intensity
CAACTGACCGGACAGAACACAGCCACAAAACACGAG	944
CTGGTAGAAAAGGAAGCAGGTTGTGGTGAGCATTTA	767
CATGGTTGTTATTTCCTCACCACAATATGTGACATT	1200

Param item = CGGCTGGCAGGAAGTGGCCACTTGAACCGCAGATGC ; retrieve measured RUNX1 binding intensity.
1190

====

target-desc: ETS1 (UniProt P14921)
Sequence: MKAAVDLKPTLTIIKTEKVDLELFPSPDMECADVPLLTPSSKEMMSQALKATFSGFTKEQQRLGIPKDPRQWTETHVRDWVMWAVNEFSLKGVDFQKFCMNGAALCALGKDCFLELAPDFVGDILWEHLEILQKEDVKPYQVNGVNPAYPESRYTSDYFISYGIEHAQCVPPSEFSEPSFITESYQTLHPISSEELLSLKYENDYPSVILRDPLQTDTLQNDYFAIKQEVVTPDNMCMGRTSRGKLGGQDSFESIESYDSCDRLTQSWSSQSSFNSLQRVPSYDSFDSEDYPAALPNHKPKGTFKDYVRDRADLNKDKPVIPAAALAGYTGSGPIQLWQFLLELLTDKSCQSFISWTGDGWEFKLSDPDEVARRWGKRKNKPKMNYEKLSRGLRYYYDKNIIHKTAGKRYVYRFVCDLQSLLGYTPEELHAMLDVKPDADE
assay-name: TF binding intensity (PBM fluorescence), negative control probe (arbitrary fluorescence units); higher = stronger binding
// reported TF binding intensity for each item listed
Respond using a number only.

// worked examples, TF binding intensity included
item-sequence	TF binding intensity
TGGAATCTCATCCAAGCTGGATTTTGCGATCTTTGA (protein concentration 10 nM)	104
ATTTCTTGAGAAATCTGTGGTTATTATTTAACTCTT (protein concentration 1 nM)	461
CAGAGGGGGCCTCTGGGGCAGCGGTGCTGGGAGCGG (protein concentration 10 nM)	109
AGCAGATCATTTGAGCCTGGGAGGCGCACATGGCAG (protein concentration 10 nM)	116
TCCTCTGGTCTCTAAACCACAGCCTCCACCAGCAAC (protein concentration 1 nM)	442
CACACCCGCCTGTTACCCACATGCACAAGCAGTCTG (protein concentration 1 nM)	449
TTCTAAAGAAATCACAGTCAAATCTACCATTTGCGT (protein concentration 10 nM)	99.5
AGAGCCACAGTGTGGCTTGGCTGGTAAATTATTTGT (protein concentration 10 nM)	109

Field: next sequence
Could you share what TF binding intensity was measured for GTTTGGCTTTCAGAGTGTGGTTTGGATTCCTAACAG (protein concentration 1 nM) , tested on ETS1 (UniProt P14921)?
450

====

target-desc: ETS1 (UniProt P14921)
Sequence: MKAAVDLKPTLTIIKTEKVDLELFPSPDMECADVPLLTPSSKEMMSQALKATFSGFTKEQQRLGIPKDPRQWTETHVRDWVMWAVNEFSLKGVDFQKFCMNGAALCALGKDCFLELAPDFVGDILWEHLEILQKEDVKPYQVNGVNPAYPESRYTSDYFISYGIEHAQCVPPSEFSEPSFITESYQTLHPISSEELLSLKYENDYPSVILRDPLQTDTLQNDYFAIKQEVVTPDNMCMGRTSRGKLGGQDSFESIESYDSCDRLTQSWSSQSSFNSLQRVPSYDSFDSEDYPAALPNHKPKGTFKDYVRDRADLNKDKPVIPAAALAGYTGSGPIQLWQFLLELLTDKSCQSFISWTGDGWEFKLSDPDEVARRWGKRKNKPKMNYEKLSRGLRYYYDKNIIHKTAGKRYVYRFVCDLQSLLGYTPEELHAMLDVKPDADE
assay-name: ETS1 binding intensity (PBM fluorescence), ETS1 alone (arbitrary fluorescence units); higher = stronger binding
particulars: ETS1 concentration 1 nM; RUNX1 concentration 0 nM
// reported ETS1 binding intensity for each item listed
Respond using a number only.

item-sequence	attribute-measured	recorded-measurement
GGTGACACGGCCGGCTTCCTGCCGCAGAGCTCCTGG	ETS1 binding intensity	719
TTTCACTTCCGGCATGTTTTTCACCCACAGGGATAT	ETS1 binding intensity	3910

Field: next sequence
Could you share what ETS1 binding intensity was measured for CGACTTCCGTCCCTGGGTGGGATCGAACCACCAACC , tested on ETS1 (UniProt P14921)?
532
